test system: OVCAR-5; test: NCI tumour cell line growth inhibition, 48 h
Active and inactive are the calls of the source. Rule as the data show it: active = GI50 up to about 1.1 µM and inactive = higher.
Measure: GI50

[
  {
    "Compound": "O=C(O)c1c(-c2c3ccc(=O)cc-3oc3cc(O)ccc23)cc2ccccc2c1-c1ccccc1",
    "Target desc": "OVCAR-5",
    "GI50": "> 100 µM (inactive)"
  },
  {
    "Compound": "CCC(=O)/C(=C\\I)c1ccccc1",
    "Target desc": "OVCAR-5",
    "GI50": "1.84 µM (inactive)"
  },
  {
    "Compound": "Cc1cc(C)c(-c2noc(-c3ccc(Cl)cc3)c2C2=NCCN2)c(C)c1",
    "Target desc": "OVCAR-5",
    "GI50": "32.1 µM (inactive)"
  }
]

I would be grateful if you could provide GI50 for each of the following entries.
1. O=Cc1cc([N+](=O)[O-])no1
2. COc1ccc(CC2C3=C(CCCC3)CCN2C)cc1 (stereo not given)
3. CCCCCC1CC=CC(=O)O1 (stereo not given)
4. COc1ccc(C(OCC2OC(n3ccc(Oc4c(F)c(F)c(F)c(F)c4F)nc3=O)CC2OP(OCCC#N)N(C(C)C)C(C)C)(c2ccccc2)c2ccc(OC)cc2)cc1 (stereo not given)

RESULT:
["71.8 µM (inactive)", "> 100 µM (inactive)", "6.84 µM (inactive)", "> 100 µM (inactive)"]

I would be grateful if you could provide GI50 for each of the following entries.
1. O=C1C2C3C4C1C1C2[C@H](OCc2ccccc2)C3C1[C@H]4OCc1ccccc1 (stereo not given in full)
2. COc1nc(NC2OC(COC(C)=O)C(OC(C)=O)C(OC(C)=O)C2OC(C)=O)c2c(OC(C)=O)cc(=O)oc2n1 (stereo not given)
3. CC(C)=CCc1c2c(c3occ(-c4ccc(O)c(O)c4)c(=O)c3c1O)C=CC(C)(C)O2
4. N#CCc1cccc(CC#N)c1Br
5. CN(C)CC1CCC/C1=N/OC(=O)c1ccccc1 (stereo not given)
6. CCNCCCCNCCCCNCCCCNCCCCNCC
7. CCOC(=O)/C=C(\C(=O)OCC)n1ccc(=O)[nH]c1=O
8. CCCCCCCCCCCCCCCCCc1cccc(OCOCCOC)c1C(=O)O

RESULT:
1. 24.3 µM (inactive)
2. > 100 µM (inactive)
3. 7.82 µM (inactive)
4. > 100 µM (inactive)
5. > 100 µM (inactive)
6. 52.5 µM (inactive)
7. 19.7 µM (inactive)
8. 16.8 µM (inactive)

----------
test system: TK-10; assay: NCI tumour cell line growth inhibition, 48 h
Activity calls are given as the source filed them. Rule as the data show it: active = GI50 up to about 1.1 µM and inactive = higher.
Result category, one only: t = active, f = inactive

QUERY: For O=C1/C(=C/c2ccccc2)CCc2ccc(Cl)nc21 , what call appears in the results of this test?
RESULT: f

QUERY: Would you mind doing Oc1cccc(-c2cn3cc(Cl)ccc3n2)c1 as well?
RESULT: f

QUERY: Would you mind doing Cc1cc2cc3c(cc2c(-c2ccc(N)cc2)n1)OCO3 as well?
RESULT: f

QUERY: Would you mind doing O=C(c1ccccc1)c1nc2ccc(Cl)cc2cc1C(Br)Br as well?
RESULT: t

----------
test system: UO-31; experiment: NCI tumour cell line growth inhibition, 48 h
Activity calls are given as the source filed them. Cut-off read from the data, not from the text of the source: active = GI50 up to about 1.1 µM and inactive = higher. Where a SMILES comes first, the peptide text is derived from it.
Measure: GI50

[
  {
    "Compound": "COc1ccc([C@@]2(O)c3c(ccc(O)c3OC)[C@H]2OC)c(OC)c1",
    "Recorded result": "69.3 µM (inactive)"
  },
  {
    "Compound": "CC1NC(=O)CNC(=O)CNC(=O)C(Cc2ccc(O)cc2)NC(=O)C(C(C)C)NC(=O)C(C)NC1=O (stereo not given) (cyclo(GGAAVY); configuration not given here)",
    "Recorded result": "> 100 µM (inactive)"
  },
  {
    "Compound": "Cc1cc(C)n2nc3nc(N)c(C#N)c(-c4ccccc4)c3c2n1",
    "Recorded result": "> 100 µM (inactive)"
  }
]

I would be grateful if you could provide GI50 for each of the following entries.
1. N#CCc1cccc(CC#N)c1Br
2. Cc1nc(N)c(N2CCN(S(=O)(=O)N(Cc3ccccc3)Cc3ccccc3)CC2)c(O)n1

RESULT:
> 100 µM (inactive)
> 100 µM (inactive)

----------
test system: A549; assay: NCI tumour cell line growth inhibition, 48 h
The source made the active and inactive calls. Rule as the data show it: active = GI50 up to about 1.1 µM and inactive = higher.
Result category, one only: active, inactive

[
  {
    "Compound": "Cc1ccc(C)c(N2C/C(=N\\NC(=O)CC#N)C(c3nc4ccccc4s3)C(=O)C2=O)c1 (stereo unspecified)",
    "Class": "inactive"
  }
]

QUERY: For COc1cc(-c2nc(SC)nc3c2CCc2ccccc2-3)cc(OC)c1OC , what call appears in the results of this test?
RESULT: inactive

QUERY: Would you mind doing O=S(=O)(O)CCCc1cccc2ccccc12 as well?
RESULT: inactive

QUERY: Would you mind doing CC(=O)Nc1ncc(Sc2ccccc2C(=O)O)s1 as well?
RESULT: inactive

QUERY: Would you mind doing COC(=O)c1cc2c(c(C(=O)OC)c1)CCC2 as well?
RESULT: inactive

QUERY: Would you mind doing C/C(=N\Nc1nnc(S)n1N)c1c(O)cc(C)oc1=O as well?
RESULT: inactive

QUERY: Would you mind doing C=CCn1c(-c2ccc([N+](=O)[O-])cc2)cs/c1=N\C(P(=O)(O)O)P(=O)(O)O as well?
RESULT: inactive

QUERY: Would you mind doing COc1ccc(/N=C2\C(=N/c3ccc(OC)cc3)N(S(=O)(=O)c3ccccc3)C(=S)N2c2ccccc2)cc1 as well?
RESULT: inactive

----------
test system: RXF 631; test: NCI tumour cell line growth inhibition, 48 h
Calls of active or inactive are those of the source. No stated cut-off is given here; in the data, active = GI50 up to about 1.1 µM and inactive = higher.
Result category, one only: active, inactive

[
  {
    "Compound": "O=C(CCN(C(=O)O)S(=O)(=O)c1ccc(NC(=O)c2ccccc2)cc1)Nc1ccccc1",
    "Target desc": "RXF 631",
    "Class": "inactive"
  },
  {
    "Compound": "Cc1cc(C)nc(NS(=O)(=O)c2ccc(Nc3c4ccccc4nc4c(C(=O)N5CCN(CCO)CC5)ccc(Cl)c34)cc2)n1",
    "Target desc": "RXF 631",
    "Class": "inactive"
  },
  {
    "Compound": "CCCN(CCC)C(=O)C(=O)c1c(N)[nH]n(-c2ccccc2)c1=O",
    "Target desc": "RXF 631",
    "Class": "inactive"
  }
]

QUERY: For CCN(CC)CCCN1CCc2c([nH]c3ccccc23)C1c1cccnc1 (configuration not stated) , what call appears in the results of this test?
RESULT: inactive

QUERY: Would you mind doing CCOc1ccc(OCC)c([P+](c2ccccc2)(c2ccccc2)c2ccccc2)c1 as well?
RESULT: inactive

QUERY: Would you mind doing ClCCN(CC#CCCCC#CCN(CCCl)CCCl)CCCl as well?
RESULT: inactive

QUERY: Would you mind doing CCC1=C(C)/C(=C/c2[nH]c(CBr)c(CC)c2C)N=C1CBr as well?
RESULT: inactive

QUERY: Would you mind doing Cc1cc(Cl)ccc1NC(=O)CC1SC(Nc2ccccc2Cl)=NC1=O (configuration not stated) as well?
RESULT: inactive

QUERY: Would you mind doing OCCOc1ccc(-c2cc(-c3ccccn3)nc(-c3ccccn3)c2)cc1 as well?
RESULT: active

QUERY: Would you mind doing N#Cc1c([N+](=O)[O-])cc(C(F)(F)F)cc1[N+](=O)[O-] as well?
RESULT: inactive

QUERY: Would you mind doing C=C1CCC2C(C)(CO)C(O)CCC2(C)C1CC(O)/C(=C/CO)C(=O)O (configuration not stated) as well?
RESULT: inactive

QUERY: Would you mind doing C[Si](C)(C)[C@@]1([Se]c2ccccc2)CC[C@@H]1C(=O)c1ccccc1 as well?
RESULT: inactive

----------
tested on: NCI-H460; experiment: NCI tumour cell line growth inhibition, 48 h
Active and inactive are the calls of the source. No stated cut-off is given here; in the data, active = GI50 up to about 1.1 µM and inactive = higher.
Measure: GI50

Field: example entries. Status: answers known.
[
  {
    "Compound": "Cc1cc(/N=N/c2ccc(/N=N/c3c(O)c(S(=O)(=O)O)cc4cc(S(=O)(=O)O)ccc34)cc2C)ccc1/N=N/c1ccc2cc(S(=O)(=O)O)cc(S(=O)(=O)O)c2c1",
    "Recorded result": "> 100 µM (inactive)"
  },
  {
    "Compound": "CCOC(=O)c1cnc2oc3ccc(O)cc3c2c1C",
    "Recorded result": "> 100 µM (inactive)"
  },
  {
    "Compound": "CNC1C(O)C(OC2C(N)CC(N)C(OC3OC(C(C)O)C(O)C(O)C3N)C2O)OCC1(C)O (stereo not given)",
    "Recorded result": "> 100 µM (inactive)"
  },
  {
    "Compound": "O=C(C#CP(=O)(O)c1ccccc1)c1ccccc1",
    "Recorded result": "> 100 µM (inactive)"
  },
  {
    "Compound": "CC(C)(C)c1cc(C(=O)/C=C/c2cc[nH]n2)cc(C(C)(C)C)c1O",
    "Recorded result": "3.72 µM (inactive)"
  }
]

I would be grateful if you could provide GI50 for each of the following entries.
1. COc1cc(C2SCC(=O)N2c2ccc(-c3ccc(-n4c(-c5ccccc5)nc5ccccc5c4=O)cc3)cc2)ccc1O (stereo not given)
2. O=C(CCN1CCOCC1)C(=Cc1ccccc1)C(=O)CCN1CCOCC1
3. Cc1cccc(C)c1NC(=O)C1=NC(=S)NC(c2ccccc2)C1c1nc2ccccc2s1 (stereo not given)
4. Cc1c2cccc(Sc3ccccc3)c2c2c3c(cccc13)[S+](c1ccccc1)C2 (stereo not given)
5. O=Cc1cc([N+](=O)[O-])no1

RESULT:
1: > 100 µM (inactive); 2: 12.8 µM (inactive); 3: > 100 µM (inactive); 4: 1.58 µM (inactive); 5: 44.9 µM (inactive)

I would be grateful if you could provide GI50 for each of the following entries.
1. c1ccc2c(c1)SC(=C1Sc3ccccc3S1)S2
2. CC(C)(O)[C@@H]1CC[C@](C)(C2[C@@H](O)C[C@@]3(C)C4C[C@H](OC5OCC(O)C(O)C5O)[C@H]5C(C)(C)[C@@H](OC6OCC(O)C(O)C6OC6OCC(O)C(O)C6O)CC[C@@]56C[C@@]46CC[C@]23C)O1 (stereo not given in full)
3. O=c1c2ccc3cccc4c(=O)cc(c5ccccc15)-c2c34
4. O=C(CSc1nc2ccc(I)cc2c(=O)n1Cc1ccccc1)N/N=C/c1ccccc1
5. CN1CCC(SC2Cc3cc(Cl)ccc3Sc3ccccc32)CC1 (stereo not given)

RESULT:
1: 55.8 µM (inactive); 2: > 100 µM (inactive); 3: > 100 µM (inactive); 4: 27 µM (inactive); 5: 12.2 µM (inactive)

I would be grateful if you could provide GI50 for each of the following entries.
1. COc1ccc(C2NC3=C(CCCC3)C3(C#N)C(=O)N=C(N)C23C#N)cc1 (stereo not given)
2. COCN1C(=O)[C@@H]2CCCN2C(=O)c2ccc([N+](=O)[O-])cc21
3. O=C(NC(Cc1ccccc1)P(=O)(O)c1ccccc1)OCc1ccccc1 (stereo not given)

RESULT:
1. > 100 µM (inactive)
2. > 100 µM (inactive)
3. > 100 µM (inactive)

I would be grateful if you could provide GI50 for each of the following entries.
1. Cc1nc(N)c(N2CCN(S(=O)(=O)N(Cc3ccccc3)Cc3ccccc3)CC2)c(O)n1
2. N#Cc1nn(C(N)=O)c(N)c1C#N

RESULT:
1. 40.6 µM (inactive)
2. > 100 µM (inactive)
